Read-out: solute carrier (SLC22A1), SLC22A1 (gene 6580)
assay_method_text: LTEA_HepaRG_SLC22A1: Life Technologies and Expression Analysis (LTEA) Assay for solute carrier (SLC22A1) using HepaRG (AID 2283524)
cond: mRNA level, 48 h; actives raise or lower the signal
Active and inactive are the calls of the source. Rule for the calls: active = hit-call score of the fitted dose curve at least 0.9, where 1 is the maximum; inactive = score below 0.9.
Assign a class; possible classes are Y for active, N for inactive

I'd appreciate the recorded outcome for O=C(O)c1cccc(C(=O)O)c1 from this test. N

Next entry: CCOC(N)=O N

Next entry: Cn1c(=O)c2[nH]cnc2n(C)c1=O N

Next entry: O=C(O)[C@H](O)[C@@H](O)C(=O)O N

Next entry: Cc1nccn1-c1ccc(Sc2cccc(C3(C(N)=O)CCOCC3)c2)cc1 Y

Next entry: C[C@]12C=CC(=O)C=C1CC[C@H]1[C@@H]3C[C@@H](O)[C@](O)(C(=O)CO)[C@@]3(C)C[C@H](O)[C@@]12F N

Next entry: OC[C@H]1O[C@@](CO)(O[C@H]2O[C@H](CO)[C@@H](O)[C@H](O)[C@H]2O)[C@@H](O)[C@@H]1O N

====

assay_method_text: CCTE_Shafer_MEA_acute_burst_duration_mean: CCTE's Neural Acute Assay for Mean Burst Duration, Shafer Lab (AID 2284014);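 note: hits are decreases in mean burst duration relative to DMSO controls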
Activity calls are given as the source filed them. How the source made its calls: active means hit-call score of the fitted dose curve at least 0.9, where 1 is the maximum; inactive means score below 0.9.
Assign a class; possible classes are Y = active, N = inactive

The following compounds have reported results that may help.
I'd appreciate the recorded outcome for CCCCCCCC1CCC(=O)O1 (stereo not given) from this test. N

Next entry: CCCCC(CC)C(=O)OCCOCCOCCOC(=O)C(CC)CCCC (stereo not given) N

Next entry: CCc1ccc(O)c(C(C)(C)C)c1 Y

Further cases:
I'd appreciate the recorded outcome for Cn1c(=O)c2[nH]cnc2n(C)c1=O from this test. N

Next entry: C=CCc1cc(S(=O)(=O)c2ccc(O)c(CC=C)c2)ccc1O N

====

Read-out: Thrombomodulin, THBD (gene 7056)
assay_method_text: BSK_CASM3C_Thrombomodulin: BioMAP Diversity Plus: CASM3C Assay for Thrombomodulin Biomarker Activity (AID 2283051);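 note: thrombomodulin protein level measured by ELISA 24 h after dosing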
cond: primary human coronary artery smooth muscle cells; actives raise or lower the signal
Activity calls are given as the source filed them. Rule for the calls: active = hit-call score of the fitted dose curve at least 0.9, where 1 is the maximum; inactive = score below 0.9.
Assign a class; possible classes are T (active), F (inactive)

The following compounds have reported results that may help.
I'd appreciate the recorded outcome for NC(=O)N1c2ccccc2C=Cc2ccccc21 from this test. F

Next entry: CC1(C)C(=O)N(Cl)C(=O)N1Cl F

Next entry: NC(N)=O F

Next entry: NC(=O)N(O)[C@@H]1COc2cc(OCc3ccccc3)ccc21 F

Next entry: COCc1nnc(-c2ccc[n+]([O-])c2)n1-c1c(Cl)c(Cl)cc2[nH]c(=O)c(=O)[nH]c12 F

Shifting focus to the compound that follows.
I'd appreciate the recorded outcome for COS(C)(=O)=O from this test. F

====

Read-out: Vascular cell adhesion molecule 1 (VCAM1), VCAM1 (gene 7412)
assay_method_text: BSK_LPS_VCAM1: BioMAP Diversity Plus: LPS Assay for Vascular cell adhesion molecule 1 (VCAM1) Biomarker Activity (AID 2283086)
cond: primary human HUVEC with PBMC; actives raise or lower the signal
Method: BSK_LPS is a cell-based, multiplexed-readout assay that uses umbilical vein endothelium and peripheral blood mononuclear cells, a human vascular primary cell co-culture, with measurements taken at 24 hours after chemical dosing in a 96-well plate.BSK_LPS_VCAM1 is an assay component measured in the BSK_LPS assay. It measures VCAM-1 antibody related to regulation of gene expression using ELISA technology.Data from the assay component BSK_LPS_VCAM1 was analyzed into 1 assay endpoint. […]
The source made the active and inactive calls. Rule for the calls: active = hit-call score of the fitted dose curve at least 0.9, where 1 is the maximum; inactive = score below 0.9.
Assign a class; possible classes are active, inactive

I'd appreciate the recorded outcome for Nc1ccn([C@@H]2O[C@H](CO)[C@@H](O)[C@@H]2O)c(=O)n1 from this test. inactive

Next entry: C[Si](C)(C)C(F)(F)C(F)(F)C(F)(F)F inactive

Next entry: FC(F)(F)COC(OCC(F)(F)F)OCC(F)(F)F inactive

Next entry: Cc1nccn1-c1ccc(Sc2cccc(C3(C(N)=O)CCOCC3)c2)cc1 active

Next entry: OC[C@H]1O[C@@H]2O[C@H]3[C@H](O)[C@@H](O)[C@@H](O[C@H]4[C@H](O)[C@@H](O)[C@@H](O[C@H]5[C@H](O)[C@@H](O)[C@@H](O[C@H]6[C@H](O)[C@@H](O)[C@@H](O[C@H]7[C@H](O)[C@@H](O)[C@@H](O[C@H]1[C@H](O)[C@H]2O)O[C@@H]7CO)O[C@@H]6CO)O[C@@H]5CO)O[C@@H]4CO)O[C@@H]3CO inactive

Next entry: CCCCOC(=O)c1ccccc1 inactive

Next entry: OCc1ccccc1 inactive

Next entry: OCC(CO)(CO)CO inactive

Next entry: COc1cc(C(C)C)c2c(c1)S(=O)(=O)N(COc1cc(=O)n3cccc(OCCN4CCCCC4)c3n1)C2=O active

====

tested_system: rat Opioid Receptor, Non-selective Binding, Oprm1 (gene 25601) (UniProt P33535)
Sequence (P33535 whole entry, looked up): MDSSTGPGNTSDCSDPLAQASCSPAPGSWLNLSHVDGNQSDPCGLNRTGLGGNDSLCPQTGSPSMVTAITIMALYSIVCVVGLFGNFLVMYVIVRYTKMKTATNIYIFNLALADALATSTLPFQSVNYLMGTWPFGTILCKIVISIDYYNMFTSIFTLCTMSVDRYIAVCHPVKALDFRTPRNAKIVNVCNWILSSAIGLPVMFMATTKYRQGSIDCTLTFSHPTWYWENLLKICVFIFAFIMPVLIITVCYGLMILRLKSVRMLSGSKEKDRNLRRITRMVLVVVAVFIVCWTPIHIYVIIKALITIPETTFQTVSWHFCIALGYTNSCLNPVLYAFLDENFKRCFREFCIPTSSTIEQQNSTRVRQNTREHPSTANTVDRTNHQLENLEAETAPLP
assay_method_text: NVS_GPCR_rOpiate_NonSelective: NovaScreen (NVS) G Protein-Coupled Receptor Assay for rat Opioid Receptor, Non-selective Binding (AID 2283318)
Inconclusive results are not listed. The source made the active and inactive calls. Rule for the calls: active = hit-call score of the fitted dose curve at least 0.9, where 1 is the maximum; inconclusive = response in the unintended direction; inactive = score below 0.9.
Assign a class; possible classes are active, inactive

The following molecules have reported results that may help.
I'd appreciate the recorded outcome for CCn1nc(C)c2c1C(=O)NCC(c1ccc(O)cc1)=N2 from this test. inactive

Next entry: C=CCc1cc(S(=O)(=O)c2ccc(O)c(CC=C)c2)ccc1O active

Next entry: Cc1nccn1-c1ccc(Sc2cccc(C3(C(N)=O)CCOCC3)c2)cc1 inactive

Shifting focus to the molecule that follows.
I'd appreciate the recorded outcome for Cc1ncc([C@@H](CCCCCCc2ccc3c(n2)NCCC3)CC(=O)O)cn1 from this test. active

====

Read-out: Phosphatase and tensin (PTEN), PTEN (gene 5728)
assay_method_text: LTEA_HepaRG_PTEN: Life Technologies and Expression Analysis (LTEA) Assay for Phosphatase and tensin (PTEN) using HepaRG (AID 2283523)
cond: mRNA level, 48 h; actives raise or lower the signal
Active and inactive are the calls of the source. How the source made its calls: active means hit-call score of the fitted dose curve at least 0.9, where 1 is the maximum; inactive means score below 0.9.
Assign a class; possible classes are active, inactive

I'd appreciate the recorded outcome for O=C(O)[C@H](O)[C@@H](O)C(=O)O from this test. inactive

Next entry: Cc1nc(-c2ccccn2)ncc1C(=O)Nn1cc(C)c2cc(F)ccc21 inactive

Next entry: OC(CCl)CCl inactive

Next entry: C[C@]12C=CC(=O)C=C1CC[C@H]1[C@@H]3C[C@@H](O)[C@](O)(C(=O)CO)[C@@]3(C)C[C@H](O)[C@@]12F inactive

Further cases:
I'd appreciate the recorded outcome for CCCCOC(=O)c1ccccc1 from this test. inactive

Next entry: CCCCN1C(=O)[C@@H]([C@H](O)C2CCCCC2)NC(=O)C12CCN(Cc1ccc(Oc3ccc(C(=O)O)cc3)cc1)CC2 active

Next entry: COS(C)(=O)=O inactive

Next entry: CCCCCCOC(=O)CC(CC(=O)OCCCCCC)(OC(=O)CCC)C(=O)OCCCCCC inactive

Next entry: CCCCCCCCN(C)C inactive

Next entry: NC(=O)N(O)[C@@H]1COc2cc(OCc3ccccc3)ccc21 inactive

Next entry: OC[C@H]1O[C@@H]2O[C@H]3[C@H](O)[C@@H](O)[C@@H](O[C@H]4[C@H](O)[C@@H](O)[C@@H](O[C@H]5[C@H](O)[C@@H](O)[C@@H](O[C@H]6[C@H](O)[C@@H](O)[C@@H](O[C@H]7[C@H](O)[C@@H](O)[C@@H](O[C@H]1[C@H](O)[C@H]2O)O[C@@H]7CO)O[C@@H]6CO)O[C@@H]5CO)O[C@@H]4CO)O[C@@H]3CO inactive

====

assay_method_text: CCTE_Shafer_MEA_dev_network_spike_peak: CCTE's Neural Network Formation Assay for Mean Number of Electrodes in Network Spike, Shafer Lab (AID 2284049)
Description: CCTE_Shafer_MEA_dev assay is conducted using Axion Biosystems 48 well microelectrode array (MEA) plates and Maestro recording system. Each well of the MEA plate contains a grid of 16 microelectrodes embedded in the culture surface. Electrically active cells, such as neurons, can be cultured over the electrodes, and electrical activity in these cells can be recorded extracellularly. […]
The source made the active and inactive calls. Rule for the calls: active = hit-call score of the fitted dose curve at least 0.9, where 1 is the maximum; inactive = score below 0.9.
Assign a class; possible classes are true (1) = active, false (0) = inactive

The following molecules have reported results that may help.
I'd appreciate the recorded outcome for COc1cc2c(c(OC)c1OC)-c1ccc(OC)c(=O)cc1[C@@H](NC(C)=O)CC2 from this test. true (1)

Next entry: C[C@]12C=CC(=O)C=C1CC[C@H]1[C@@H]3C[C@@H](O)[C@](O)(C(=O)CO)[C@@]3(C)C[C@H](O)[C@@]12F true (1)

Next entry: NCC(F)(F)C(F)(F)C(F)(F)C(F)(F)F false (0)

Next entry: FC(F)(F)COC(OCC(F)(F)F)OCC(F)(F)F false (0)

Next entry: c1ccc2c(c1)-c1cccc3c1c-2cc1ccccc13 true (1)

Next entry: CC[C@H](C)C(=O)O[C@H]1C[C@H](O)C=C2C=C[C@H](C)[C@H](CC[C@@H](O)C[C@@H](O)CC(=O)O)[C@H]21 true (1)

Next entry: NC(=O)N1c2ccccc2C=Cc2ccccc21 false (0)

Next entry: OCCC(F)(F)C(F)(F)C(F)(F)C(F)(F)F false (0)

Further cases:
I'd appreciate the recorded outcome for c1ccc2cc3ccccc3cc2c1 from this test. false (0)

Next entry: CCOc1ccc2[nH]cc(C(=O)NCc3ccccc3)c(=O)c2n1 false (0)

Next entry: Cn1cc[nH]c1=S false (0)

Next entry: NNC(=O)c1ccncc1 true (1)

src = PubChem BioAssay (EPA / NIEHS)
